Where these numbers come from: the supplement of paper PMC10567573

# Procedure text: protein stability index of a GFP-peptide fusion (GPS, HEK-293T) (PSI 1-6); higher = more stable;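 also: 24-mer peptide tiles fused after GFP, lentivirally expressed, FACS-sorted into six equal bins by GFP/DsRed ratio, decoded by Illumina sequencing, PSI is the read-weighted mean bin number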
# Experimental conditions: treatment: DMSO; c terminus: a fixed tail appended
Measurement name: protein stability index
Reply with the value as a number alone.

Ask | So what does the record say about protein stability index for ALGKLLPRETLCTELVLSDCMLSE [LRRC45] ?
Reply | 2.22

Ask | Same for LHAELCQAGSSQGLSLCQFQNFSL [LPCAT4]
Reply | 2.42

Ask | Same for ARQELLGDRPRWQRLLGEDKFQWL [ANKRD9]
Reply | 2.66

Ask | Same for AAAGEQASGAEAEPGPAGPPPPPS [BTBD1]
Reply | 5.45

Ask | Same for MATSELSCEVSEENCERREAFWAE [TCAP]
Reply | 5.07

Ask | Same for SSPKFREEAAFPGRRVNAKMPVYS [ELOA2]
Reply | 3.3

Ask | Same for PRKRRRNGNEEDNHLPPQTKRSSR [FAM104A]
Reply | 5.34

Ask | Same for MAPDPVAAETAAQGPTPRYFTWDE [FADS1]
Reply | 4.7

Ask | Same for VIMQVPERIVVAGNNEDVSFSRPA [MFF]
Reply | 3.4

Ask | Same for AGGIRESKESSKEKKLTVRQDLED [C22orf31]
Reply | 5.56

Ask | Same for PLGGGVGGQDGLGAPKDQQQPPQQ [KLHL14]
Reply | 5.31

Ask | Same for SSELETTSFFDSDEDDSTSRFSSS [DVL3]
Reply | 5.4

Ask | Same for QQRSKDLESRQRSLEQANRSLQLR [TFE3]
Reply | 4.76

====

# Procedure text: protein stability index of a GFP-peptide fusion (GPS, HEK-293T) (PSI 1-6); higher = more stable
# Experimental conditions: treatment: DMSO; c terminus: a fixed tail appended
# label = true if protein stability index >= 3 else false

Ask | State whether the measured protein stability index reaches 3, counting equality as reaching it, for VVDKDKRNQCRYCRLKKCFRAGMK [HNF4A]
Reply | false

Ask | Same for VGHNHTYNMAPSALDSADLPPPSA [NFE2L1]
Reply | true

Ask | Same for AVLGLYLLVFLILVGIFILAVSRP [SCARA5]
Reply | true

Ask | Same for GRSGWPAGGAPGSPIPSPPGPGDD [HES6]
Reply | true

Ask | Same for SSEASQLEDAAGGDSASEEKSGSA [FBXO34]
Reply | true

Ask | Same for PPPLTSPSHGSLSHSKAPSGSQMS [NCF4]
Reply | true

Ask | Same for DNEDYPLFRELWRYHFATGVWHQM [KLHDC10]
Reply | false

Ask | Same for SFIIYLKNIVIADFVMSLTFPFKI [P2RY14]
Reply | true

Ask | Same for VPDVKEMEKSSFTEYIESPDVENE [TAF7L]
Reply | true

Ask | Same for DNRCKLFDSPSLCSSSTRSVLKRP [CDC25A]
Reply | true

Ask | Same for LDMELGPSQGQETNEVCEQAGGGA [ADAMTSL2]
Reply | true

Ask | Same for LTQDWVQENYLEYRQVPGSDPARY [MAGEA10]
Reply | true

Ask | Same for QGCPGAKKHEFLTSVLDALSTDMV [SMOC2]
Reply | false

Ask | Same for MGKLLQQPNTYADFEFLAFWQTQY [PKD2L1]
Reply | false

Ask | Same for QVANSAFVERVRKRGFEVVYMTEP [HSP90AB1]
Reply | false

Ask | Same for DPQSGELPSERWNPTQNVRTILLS [CDC34]
Reply | true

Ask | Same for DLKQALPCVAESPTVHVEVHQRGS [TRIP13]
Reply | true

Ask | Same for GGGNDRVRNLQSEVEGVKNIMTQN [VAMP8]
Reply | true

Ask | Same for ASFRVTTGTSNTTAIKSIEFARKG [RBBP5]
Reply | true

Ask | Same for KQIVSAVAHCHQSAIVLGDLKLRK [TRIB1]
Reply | false

Ask | Same for GKNWSKLCKDCQVIDGRNVTVTDV [TPPP]
Reply | true

Ask | Same for DTVTEVTARMEMLIEELYAFMPAR [CBY2]
Reply | false

Ask | Same for RELLEFTHMYLQSDDEMELEETEP [P3H4]
Reply | true

Ask | Same for EVPDSYTGPRLSFPLLPDHATALV [PPEF2]
Reply | true
